- Test system: HCC-2998 colon
- TEST NAME: NCI tumour cell line growth inhibition, 48 h
QUANTITY MEASURED: TGI

IN: # lookup: TGI of `O=C(/C=C/c1ccco1)Nc1ncc(Cc2cccc(C(F)(F)F)c2)s1`
OUT: 2.21 µM

IN: # lookup: TGI of COc1ccc(C2CC(c3ccccc3)=NN2C(=O)c2cc(OC)c(OC)c(OC)c2)cc1O (centres undefined)
OUT: 4.08 µM

IN: # lookup: TGI of Cc1ccc(N=NN(C)C(C)C(O)Cc2ccccc2)cc1 (centres undefined)
OUT: > 100 µM

IN: # lookup: TGI of CC1(c2nc3ccccc3[nH]2)CCC(C#N)C(C)(C)O1 (centres undefined)
OUT: > 100 µM

IN: # lookup: TGI of O=C(O)C1CC(C2CCCCN2)CN2CCCCC12 (centres undefined)
OUT: > 100 µM

IN: # lookup: TGI of `O=C(CCc1ccc(O)c(O)c1)NCCc1ccccc1`
OUT: > 100 µM

IN: # lookup: TGI of O=C(NC(=O)c1ccccc1)OC(c1ccccc1)C1CO1 (centres undefined)
OUT: > 100 µM

IN: # lookup: TGI of `CN(C)CCCOc1ccc(/C=C2/CCC/C(=C/c3ccc(OCCCN(C)C)cc3)C2=O)cc1`
OUT: 3.12 µM

IN: # lookup: TGI of `Cc1ccc(NC(=O)CCc2nnc3s/c(=C\c4cccc([N+](=O)[O-])c4)c(=O)n23)cc1`
OUT: > 100 µM

IN: # lookup: TGI of `CCOC(=O)c1cc(-c2ccc([N+](=O)[O-])cc2)c([N+](=O)[O-])[nH]1`
OUT: > 10 µM

IN: # lookup: TGI of `CCOC(=O)NC(Nc1ccc(S(=O)(=O)Nc2ccc(OC)nn2)cc1)(C(F)(F)F)C(F)(F)F`
OUT: > 100 µM

IN: # lookup: TGI of `C[C@]12CCCN1CC1=NNC(=O)c3cc(F)cc4[nH]c2c1c34`
OUT: 91.6 µM

IN: # lookup: TGI of Cc1nn(C(=O)c2ccc(Cl)cc2)c2c1C(c1ccccc1O)SC(N)=N2 (centres undefined)
OUT: > 10 µM

IN: # lookup: TGI of `Nc1c(C(=O)c2ccc(C#CCN3CCOCC3)cc2)cnn1-c1ccc(F)cc1`
OUT: > 25 µM

====

- Tested on: UACC-62 melanoma
- TEST NAME: NCI tumour cell line growth inhibition, 48 h; in the data active = GI50 below about 0.43 µM; inactive = the rest
API: response.call in Y (active), N (inactive)

IN: Per the assay record, what outcome was assigned to `COc1ccc(N=N/C(=N\NC(=O)c2cc(Br)ccc2O)c2ccc(N(CCC#N)CCC#N)cc2OC)cc1` ?
OUT: N

IN: Per the assay record, what outcome was assigned to `C=C1C(=O)O[C@@H]2C[C@@H]1CC[C@]1(C)O[C@H]1CC/C(C)=C/CC[C@@]2(C)O` ?
OUT: N

IN: Per the assay record, what outcome was assigned to `CCOC(=O)Nc1ccc2nc(N3CCCCCC3)sc2c1` ?
OUT: N

IN: Per the assay record, what outcome was assigned to `CCCCCCCCCCCCNC(=O)N[C@H](C(=O)N[C@H]1/C=C/CCNC(=O)/C=C/[C@H](C)NC1=O)C(C)C` ?
OUT: Y

IN: Per the assay record, what outcome was assigned to `O=C(COc1cccc(/C=C2\COc3ccccc3C2=O)c1)c1ccccc1` ?
OUT: N

IN: Per the assay record, what outcome was assigned to `Cc1cc2c(C(=O)NCC#N)cccc2n1-c1nc2c(c(NCc3ccccc3)n1)CCCC2` ?
OUT: Y

IN: Per the assay record, what outcome was assigned to C=C1C[C@@H](O)[C@@H](Br)C(C)(C)[C@]12CCC(C)(Br)C(Cl)C2 (some centres undefined) ?
OUT: N

IN: Per the assay record, what outcome was assigned to `CCNC(=O)Oc1ccc(/C(=C(\C)c2ccc(Cl)cc2)c2ccc(OCCN(CC)CC)cc2)cc1` ?
OUT: N

IN: Per the assay record, what outcome was assigned to `Clc1ccc(OCc2nnc3sc(SSc4nn5c(COc6ccc(Cl)cc6)nnc5s4)nn23)cc1` ?
OUT: N

IN: Per the assay record, what outcome was assigned to `NS(=O)(=O)c1ccc(N=Nc2c(O)[nH]c3ccc(C(=O)NCCc4cnc[nH]4)cc23)cc1` ?
OUT: N

IN: Per the assay record, what outcome was assigned to `CCCCOC(=O)/C=C\C(=O)NC(N)=O` ?
OUT: N

IN: Per the assay record, what outcome was assigned to `CCC[CH2][Sn]1([CH2]CCC)[O]C(=O)CN=C(C)c2ccccc2[O]1` ?
OUT: N

IN: Per the assay record, what outcome was assigned to `COc1ccc(/C(=C/c2ccc3ccccc3c2)c2nn[nH]n2)cc1OC` ?
OUT: N

IN: Per the assay record, what outcome was assigned to `CN1C(=O)/C(=C2\S/C(=N\c3nnc(-c4ccccc4)o3)NC2=O)c2ccccc21` ?
OUT: N

====

- System: CAKI-1 renal
- TEST NAME: NCI tumour cell line growth inhibition, 48 h; in the data active = GI50 below about 0.43 µM; inactive = the rest
API: response.call in active, inactive

IN: Per the assay record, what outcome was assigned to `Nc1c(C(=O)c2ccc(C#CCN3CCOCC3)cc2)cnn1-c1ccc(F)cc1` ?
OUT: inactive

IN: Per the assay record, what outcome was assigned to `Cc1ccc(S(=O)(=O)OCC(=O)Nc2ccc(C(=O)O)c(O)c2)cc1` ?
OUT: inactive

IN: Per the assay record, what outcome was assigned to `O=c1c2cccc(F)c2sc2c(NCCCNCCO)nc3ccccc3c12` ?
OUT: inactive

IN: Per the assay record, what outcome was assigned to `CS(=O)(=O)c1ccc2c(c1)C(=O)c1c-2n(CCCBr)c(=O)c2cc([N+](=O)[O-])ccc12` ?
OUT: inactive

IN: Per the assay record, what outcome was assigned to `O=C(O)c1ccc(NCc2nc3ccccc3[nH]2)cc1` ?
OUT: inactive

IN: Per the assay record, what outcome was assigned to `CN1C(=O)/C(=C2\S/C(=N\c3nnc(-c4ccccc4)o3)NC2=O)c2ccccc21` ?
OUT: inactive

IN: Per the assay record, what outcome was assigned to `NC(=O)c1cc(I)ccc1NC(=O)/C=C/c1ccccc1Cl` ?
OUT: active

IN: Per the assay record, what outcome was assigned to Clc1ccc(C2CC(c3cccc(Nc4ccncc4)c3)=NN2c2ccccc2)cc1 (stereo not given) ?
OUT: inactive

IN: Per the assay record, what outcome was assigned to CCSc1nc(NC(C)c2ccccc2)c2cnn(CO)c2n1 (stereo not given) ?
OUT: active

IN: Per the assay record, what outcome was assigned to CC(C)(C)[Si](C)(C)OC1[C@@H](O[Si](C)(C)C(C)(C)C)[C@@H](CNC(=O)NC(=O)NC(=O)CCl)O[C@H]1n1cnc2c(NC(=O)Nc3ccccc3)ncnc21 (stereo not given in full) ?
OUT: inactive

====

I'd appreciate it if you could supply TGI values for the items below.
- Test system: SF-268 CNS
- TEST NAME: NCI tumour cell line growth inhibition, 48 h
Where a SMILES comes first, the peptide text is derived from it. The star is where a group is joined. Boc = CC(C)(C)OC(=O)*

IN: # lookup: TGI of CC(C)(C)C(O)CC(O)(C(F)(F)F)C(F)(F)F (centres undefined)
OUT: > 100 µM

IN: # lookup: TGI of CC(NC(=O)C1CCCN1C(=O)CNC(=O)OC(C)(C)C)C(=O)O (stereo not drawn) (Boc-Gly-Pro-Ala-OH; configuration not given here)
OUT: > 100 µM

IN: # lookup: TGI of NC(CP(=O)(O)O)C(=O)O (centres undefined)
OUT: > 100 µM

IN: # lookup: TGI of CCc1cccc(C)c1N1C(=O)C(=O)C(c2nc3ccccc3o2)/C(=N/NC(=S)NN)C1=O (centres undefined)
OUT: > 100 µM

IN: # lookup: TGI of Cc1ccc(C(=O)C(c2nc3n(c2O)C(=N)N=N3)c2nc3n(c2O)C(=N)N=N3)cc1 (centres undefined)
OUT: > 100 µM

IN: # lookup: TGI of CC1(CO)C(O)CCC2(C)C1C(O)CC1CC3CC12CCC3(O)CO (centres undefined)
OUT: > 225 µM

IN: # lookup: TGI of CC(=O)OC1CC2C(C)(C)CCC[C@]2(C)C2=C1C(O)=C(C(C)C)C(=O)C2=O (some centres undefined)
OUT: 10.1 µM

IN: # lookup: TGI of `CCOc1cc(/C=N/c2nc3cc4sc(/N=C/c5ccc(O)c(OCC)c5)nc4cc3s2)ccc1O`
OUT: > 100 µM

IN: # lookup: TGI of `COC(C)(C)[C@@H]1CCCN1C1=C(C)C(=O)OC1`
OUT: > 100 µM

IN: # lookup: TGI of Clc1cc2nc(C3CCCCO3)[nH]c2cc1Cl (centres undefined)
OUT: > 100 µM

IN: # lookup: TGI of `COc1ccc2nc3cc([N+](=O)[O-])ccc3c(NNc3ccc([N+](=O)[O-])cc3)c2c1`
OUT: > 100 µM

IN: # lookup: TGI of CC(C)(C)[Si](C)(C)OC1[C@@H](O[Si](C)(C)C(C)(C)C)[C@@H](CNC(=O)NC(=O)NC(=O)CCl)O[C@H]1n1cnc2c(NC(=O)Nc3ccccc3)ncnc21 (some centres undefined)
OUT: 14 µM

IN: # lookup: TGI of O=C(Nc1ccn(C2CC(I)C(COC(c3ccccc3)(c3ccccc3)c3ccccc3)O2)c(=O)n1)c1ccccc1 (centres undefined)
OUT: 17.9 µM

IN: # lookup: TGI of `CCC1=C[C@@H]2CN(C1)Cc1c([nH]c3ccccc13)[C@@](C(=O)OC)(c1cc3c(cc1OC)N(C)[C@H]1[C@@](O)(C(=O)OC)[C@H](OC(C)=O)[C@]4(CC)C=CCN5CC[C@]31[C@@H]54)C2`
OUT: 14.2 µM

These measurements were taken from PubChem BioAssay (NCI).
